Test: Solubility of ISF402 at various pH and temperatures
Type: physicochemical
Settings: 25 mM ammonium bicarbonate buffer; both at room temperature and 37° C.; below pH 4.6 and above pH 6.9; read-out: solubility
Peptide text beside a SMILES is read from it.
value-type: solubility at 24 h

query: Retrieve solubility at 24 h measured for CC(C)[C@H](N)C(=O)N[C@@H](Cc1c[nH]cn1)C(=O)N[C@H](C(=O)N[C@@H](CC(=O)O)C(N)=O)[C@@H](C)O [ISF402, Val-His-Thr-Asp-NH2] (H-VHTD-NH2) and print it.
result: 300 to 450 mg/mL

----------
Assay: Solubility of ISF402 at various pH and temperatures
Format: physicochemical
Details: 25 mM ammonium bicarbonate buffer; 37° C., pH 6; read-out: minimum solubility
Procedure: Solid ISF402 was added to 50 μL aliquots of 25 mM ammonium bicarbonate buffer until no more solid dissolved. The total weight of the peptide added to each tube was noted and the pH of each solution was adjusted to approximately pH 8 by the addition of 1 M NaOH. Samples were incubated with constant shaking at either room temperature (23-25° C.) or 37° C. for 24 hours then centrifuged at 16000×g for 15 minutes. […] The pH of the remaining supernatant was measured. […]
Peptide text beside a SMILES is read from it.
value-type: solubility at 24 h (mg/mL)
Give just the numeric value; mg/mL need not be written.

query: Retrieve solubility at 24 h measured for CC(C)[C@H](N)C(=O)N[C@@H](Cc1c[nH]cn1)C(=O)N[C@H](C(=O)N[C@@H](CC(=O)O)C(N)=O)[C@@H](C)O [ISF402, Val-His-Thr-Asp-NH2] (H-VHTD-NH2) and print it.
result: 179
